The following sequences are shown together with reported apparent KD of MS2 coat protein values.
- Test system: MS2 coat protein
- procedure-details: apparent KD of MS2 coat protein; designed switch direction (-1 OFF switch, 1 ON switch): -1; higher = weaker reporter binding
- condition-info: Eterna round: R95; input ligand: microRNA oligo, concentration not stated
measurement-name: apparent KD of MS2 coat protein

1) UGAAGUAGAAACCGAUCCUACAUGAGGAUCACCCAUGUAGCAAGACGUGCACGCGAAGCUCGUCAGACUACCAGAAG [salish99_TOv1_r3_002] (puzzle: Sensor v3, turn-off variant 1) :: 167 nM
2) GAUUAUGCGAGCUUUAGGGACAUGAGGAUCACCCAUGUUCGUCUUAUUGAUCUAGGUACGCUGACGUACCUAAAUCU [Mod of one of jandersonlee's solutions] (puzzle: Sensor v3, turn-off variant 1) :: 35.2 nM
3) ACGUGACAUGAGGAUCACCCAUGUGAGGAUAUCUGGAUAAUUUUUAUUUUAGAUAUCCAGAGAAGGCACAUGUU [Ex1-3: 1Z] (puzzle: Exclusion 1) :: 188 nM
4) GAUAGAGAGCAGGAUAUCUUGGGUAAGUAUCGUAGAGAAGGGCUCACAUGAGGAUCACCCAUGUGGUCCAAGAU [JL Dibiri mod 01] (puzzle: Exclusion 6) :: 14.4 nM
5) AGUACUAACACGAAAGUGUUAGUACAAUAAGCUUGUGUUACAUGAGGAUCACCCAUGUCCUCAUAAGCUCGUCUUAU [JL-sv3-2.14 mat747 mod] (puzzle: Sensor v3, turn-off variant 2) :: 48.5 nM
6) AAAACACAUGAGGAUCACCCAUGUGAGGAUAUGUUAGUUUCGGCGAAAGCCGAAAUUAACAGAAGGCACAGAAA [JR_Exclusion1_Sub023] (puzzle: Exclusion 1) :: 39.4 nM
7) AGUACUAUGCGAGCUGACUUGCGUAGUGCAGCAGGUGGAACAUGAGGAUCACCCAUGUCCUCAUUUGCUCGUCUUAA [Mat - Sensor v3 - Turn-off var 2 - D5] (puzzle: Sensor v3, turn-off variant 2) :: 109 nM
8) CAUUUGUGAGGAUAUCAGGUGUGCUAGCGUACUGGUACAUCUGAGAAGGCACAUGAGGAUCACCCAUGUUCCUC [Mat - Exclusion 4 - Mod of JL - D35] (puzzle: Exclusion 4) :: 44.1 nM
9) CGUGACUCAGGAUAUCUAUUGUAUCACAUGAGGAUCACCCAUGUCCAGCGAAAGCUGGAGGGAGAAGGGAGUCACG [Fiskers Ex 5 - 46] (puzzle: Exclusion 5) :: 204 nM
10) AAGUACCGUCACGAUAGUGAUGGUACAACAGGCAAAUGUACAUGAGGAUCACCCAUGUCCUCUUUUGCUCGUCUUGU [Sensor 3 - 35] (puzzle: Sensor v3, turn-off variant 2) :: 34 nM

Values were extracted from the supplement of paper PMC9170038.
